Tested on: Staphylococcus saprophyticus
Experiment: Antibacterial activity against methicillin-resistant mecA-positive Staphylococcus saprophyticus isolate TSU57 isolated from genitourinary tracts of acute cystitis patient after 24 hrs at 35 degC by agar dilution method
Assay type: functional
Conditions: isolate TSU57, Urine
# reported MIC; entries follow
The answer is to be given in µg/mL; state only the numeric part.

{"Compound": "C[C@@H](O)[C@H]1C(=O)N2C(C(=O)O)=C(SCCNC=N)C[C@H]12 [IMIPENEM ANHYDROUS]", "Assay Readout": "MIC", "Result Value": 0.125}

Please fill in: MIC reported for CN[C@H](CC(C)C)C(=O)N[C@H]1C(=O)N[C@@H](CC(N)=O)C(=O)N[C@H]2C(=O)N[C@H]3C(=O)N[C@H](C(=O)N[C@H](C(=O)O)c4cc(O)cc(O)c4-c4cc3ccc4O)[C@H](O)c3ccc(c(Cl)c3)Oc3cc2cc(c3O[C@@H]2O[C@H](CO)[C@@H](O)[C@H](O)[C@H]2O[C@H]2C[C@](C)(N)[C@H](O)[C@H](C)O2)Oc2ccc(cc2Cl)[C@H]1O = 0.5

Recorded result, NC[C@H]1O[C@H](O[C@H]2[C@H](O)[C@@H](O[C@H]3O[C@H](CO)[C@@H](O)[C@H](N)[C@H]3O)[C@H](N)C[C@@H]2N)[C@H](O)[C@@H](O)[C@@H]1O , MIC: 0.25

====

Here, each record is paired with measured MIC data.
System: Staphylococcus saprophyticus
Test: Antibacterial activity against methicillin-resistant mecA-positive Staphylococcus saprophyticus isolate TSU90 isolated from genitourinary tracts of acute cystitis patient after 24 hrs at 35 degC by agar dilution method
Assay type: functional
Details: isolate TSU90, Urine
Please state the figure in µg/mL; there is no need to write the unit.

The following compounds have reported results that may help.
{"Compound": "Cc1nnc(SCC2=C(C(=O)O)N3C(=O)[C@@H](NC(=O)Cn4cnnn4)[C@H]3SC2)s1", "Result Units": "µg/mL", "MIC": 64}
{"Compound": "Cc1onc(-c2ccccc2)c1C(=O)N[C@@H]1C(=O)N2[C@@H]1SC(C)(C)[C@@H]2C(=O)O", "Result Units": "µg/mL", "MIC": 128}
{"Compound": "CC[C@H]1OC(=O)[C@H](C)[C@@H](O[C@H]2C[C@@](C)(OC)[C@@H](O)[C@H](C)O2)[C@H](C)[C@@H](O[C@@H]2O[C@H](C)C[C@H](N(C)C)[C@H]2O)[C@](C)(OC)C[C@@H](C)C(=O)[C@H](C)[C@@H](O)[C@]1(C)O", "Result Units": "µg/mL", "MIC": 16}
{"Compound": "CO[C@@]1(NC(=O)Cc2cccs2)C(=O)N2C(C(=O)O)=C(COC(N)=O)CS[C@@H]21", "Result Units": "µg/mL", "MIC": 16}

MIC recorded for this compound, C[C@@H](O)[C@H]1C(=O)N2C(C(=O)O)=C(SCCNC=N)C[C@H]12 [IMIPENEM ANHYDROUS] , is 0.125

Looking up CN[C@H](CC(C)C)C(=O)N[C@H]1C(=O)N[C@@H](CC(N)=O)C(=O)N[C@H]2C(=O)N[C@H]3C(=O)N[C@H](C(=O)N[C@H](C(=O)O)c4cc(O)cc(O)c4-c4cc3ccc4O)[C@H](O)c3ccc(c(Cl)c3)Oc3cc2cc(c3O[C@@H]2O[C@H](CO)[C@@H](O)[C@H](O)[C@H]2O[C@H]2C[C@](C)(N)[C@H](O)[C@H](C)O2)Oc2ccc(cc2Cl)[C@H]1O , I see its MIC listed as 1
